Measurement target: DNMT1 (Homo sapiens, UniProt P26358)
Sequence (P26358 whole entry): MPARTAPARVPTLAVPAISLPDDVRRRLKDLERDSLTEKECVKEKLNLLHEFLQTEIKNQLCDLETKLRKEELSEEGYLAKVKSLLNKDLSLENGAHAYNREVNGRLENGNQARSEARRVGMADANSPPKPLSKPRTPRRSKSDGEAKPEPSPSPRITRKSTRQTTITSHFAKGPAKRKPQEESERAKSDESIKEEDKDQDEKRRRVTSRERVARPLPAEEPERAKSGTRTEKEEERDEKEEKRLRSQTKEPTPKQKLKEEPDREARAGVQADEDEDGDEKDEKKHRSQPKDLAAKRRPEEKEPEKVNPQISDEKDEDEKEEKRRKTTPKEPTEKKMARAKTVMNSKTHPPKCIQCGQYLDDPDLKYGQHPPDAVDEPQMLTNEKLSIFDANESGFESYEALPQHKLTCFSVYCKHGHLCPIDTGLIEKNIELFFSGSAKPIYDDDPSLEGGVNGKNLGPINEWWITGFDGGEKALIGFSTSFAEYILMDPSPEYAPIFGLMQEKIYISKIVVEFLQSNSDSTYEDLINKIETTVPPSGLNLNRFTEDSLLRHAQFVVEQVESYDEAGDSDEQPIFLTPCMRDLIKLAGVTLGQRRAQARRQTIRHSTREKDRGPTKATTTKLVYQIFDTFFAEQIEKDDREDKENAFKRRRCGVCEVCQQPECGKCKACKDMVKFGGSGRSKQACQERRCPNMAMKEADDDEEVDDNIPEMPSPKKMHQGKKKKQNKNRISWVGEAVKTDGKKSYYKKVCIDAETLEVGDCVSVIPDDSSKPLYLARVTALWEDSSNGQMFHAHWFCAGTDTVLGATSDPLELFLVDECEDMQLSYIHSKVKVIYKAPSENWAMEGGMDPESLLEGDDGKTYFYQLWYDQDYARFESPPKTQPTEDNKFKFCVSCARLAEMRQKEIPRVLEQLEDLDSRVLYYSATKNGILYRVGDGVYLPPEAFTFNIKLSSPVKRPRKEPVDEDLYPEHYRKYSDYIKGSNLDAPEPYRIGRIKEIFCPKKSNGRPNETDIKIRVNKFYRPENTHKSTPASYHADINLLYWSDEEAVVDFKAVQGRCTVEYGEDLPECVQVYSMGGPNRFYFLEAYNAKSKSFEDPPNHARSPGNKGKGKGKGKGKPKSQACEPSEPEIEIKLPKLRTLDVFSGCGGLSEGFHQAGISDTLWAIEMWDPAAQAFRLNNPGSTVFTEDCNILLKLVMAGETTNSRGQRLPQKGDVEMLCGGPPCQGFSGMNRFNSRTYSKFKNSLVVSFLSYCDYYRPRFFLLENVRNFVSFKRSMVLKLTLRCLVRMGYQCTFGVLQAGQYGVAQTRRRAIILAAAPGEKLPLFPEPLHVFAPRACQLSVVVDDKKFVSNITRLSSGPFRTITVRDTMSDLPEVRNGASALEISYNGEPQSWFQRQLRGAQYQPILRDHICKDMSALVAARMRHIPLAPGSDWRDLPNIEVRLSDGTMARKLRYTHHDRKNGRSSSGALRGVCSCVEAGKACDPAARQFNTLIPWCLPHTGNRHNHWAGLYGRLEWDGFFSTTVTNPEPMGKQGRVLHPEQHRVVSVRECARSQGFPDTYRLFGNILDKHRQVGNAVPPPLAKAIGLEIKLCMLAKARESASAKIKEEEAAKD
Procedure summary: Selective depletion of DNMT1 by Western blot in treated HCT116 cells
Format: cell-based
Design: Protein extracts (equivalent to 100 μg) were isolated from HCT116 cells; endogenous in cells; host or cells: HCT116
Test context: HCT-116, 5 μM
Consider the following molecules and their measured % DNMT1 protein level remaining at 5 µM readings.
Expressed in %, but write only the number.

Supply reported % DNMT1 protein level remaining at 5 µM belonging to this molecule: C[n+]1ccc(Nc2ccc(C(=O)Nc3ccc(Nc4ccnc5cc(N)ccc45)cc3)cc2)cc1 [Cpd. Y] 93

* * *

Measurement target: DNMT1 (Homo sapiens)
Procedure summary: Selective depletion of DNMT1 by Western blot in treated HCT116 cells
Type: cell-based
Set-up: Protein extracts (equivalent to 100 μg) were isolated from HCT116 cells; endogenous in cells; host or cells: HCT116
Test context: HCT-116, 5 μM
Structures can show the parent of a compound that is named as a salt.
Observable: % DNMT1 protein level remaining at 5 µM (%)
Your answer is read as %, so omit the unit and give the number.

                                   molecule                               observable  uom  reported_value
0  Cc1cc(Nc2ccc(C(=O)Nc3ccc(Nc4ccnc5ccccc45)cc3)cc2)nc(N)n1 [Cpd. GG1, dihydrochloride]  % DNMT1 protein level remaining at 5 µM    %              25

Find the measured % DNMT1 protein level remaining at 5 µM of "CN(C)c1ccc2c(Nc3ccc(NC(=O)c4cccc(Nc5cc[n+](C)cc5)c4)cc3)ccnc2c1" and report it. 65

Provide only the value of recorded % DNMT1 protein level remaining at 5 µM for "C[n+]1ccc(Nc2cccc(NC(=O)c3ccc(Nc4ccnc5cc(N)ccc45)cc3)c2)cc1" 112

Using the record for Cc1cc(Nc2ccc(NC(=O)c3ccc(Nc4ccnc5ccc(N(C)C)cc45)cc3)cc2)nc(N)n1.Cl [Cpd. P, hydrochloride] , state its measured % DNMT1 protein level remaining at 5 µM. 57
